- System: MOLT-4 leukemia
- Test summary: NCI tumour cell line growth inhibition, 48 h
Kindly supply the reported TGI values for the records listed here.

Some solved cases for reference:
Consider the compound `COc1ccc(-c2cc(=O)c3c(O)c(OC)c(OC)c(OC)c3o2)cc1OC` and give its recorded TGI. > 100 µM

Read the entry S=c1sc2c(s1)SC(c1ccccc1)CS2 (stereo not given) and write its reported TGI. > 100 µM

For the compound `CCCNC(=O)Nc1c([N+](=O)[O-])cc(C(F)(F)F)cc1[N+](=O)[O-]` , report TGI. > 100 µM

Recall and state the measured TGI for `CC1=NN(c2nc(N)nc(NS(=O)(=O)c3cc(C)c(Cl)cc3S)n2)C(C)(C)C1` . > 10 µM

Respond only with TGI recorded for `C[C@]12C=CC(=O)C=C1CC[C@@H]1[C@@H]2CC[C@@]2(C)[C@H]1CC[C@]2(O)C(N)=O` > 100 µM

Batch of 3 compounds: report TGI for each.
1. CCOC1=C2N=C(C(CC)c3ccccc3F)N=C2C(=O)c2ccccc21 (stereo not given)
2. CC(C)[C@@H]1CC[C@@H](C)C[C@H]1OC(=O)c1c2n(c3ccccc13)C[C@H]1OC(C)(C)O[C@@H]21
3. COc1cc(OC2OC(CO)C(O)C(O)C2O)c2c(O)c3c(=O)cc(C)oc3cc2c1 (stereo not given)

1: > 100 µM; 2: > 100 µM; 3: > 100 µM

* * *

- Test system: IGROV1 ovarian
- Test summary: NCI tumour cell line growth inhibition, 48 h; in the data active means GI50 below about 0.43 µM; inactive means the rest
Your response should consist of one outcome taken from true (1) (active), false (0) (inactive)

Field: outcome | Entry: `CCOCC1(COCC)CCC(c2[nH]ncc2CN(C)CCNC)CC1` false (0)

Give the logged outcome of this assay for the following compound: CCCCN(CCCC)C(=O)[C@H](CC)[C@@H]1CC[C@@H](C)[C@@H]([C@H](C)[C@@H](O)[C@@H](C)C(=O)[C@H](CC)C2O[C@]3(C=C[C@@H](O)[C@]4(CC[C@@](C)([C@H]5CC[C@](O)(CC)[C@H](C)O5)O4)O3)[C@H](C)C[C@@H]2C)O1 (some centres not stated) false (0)

Hi team, can someone confirm the assay call for `CSc1ccc(C2=C(c3ccccc3)C(=O)OC2)cc1` ? false (0)

Hi team, can someone confirm the assay call for `O=C1Nc2ccc(Cl)cc2/C1=C\c1c(-c2ccc(Cl)cc2)nc2sc(C3CC3)nn12` ? false (0)

Fill in: this test's call for `c1cc(N[C@@H]2CCNC2)nc(-c2cnc3ccc(-c4cn[nH]c4)cn23)c1` is ___ false (0)

What is the recorded call for this compound in the test? CC(C)=CCc1cc2c(cc1O)C1=C(C(=O)C3=C(C1=O)S(=O)(=O)CCN3)C(C=C(C)C)O2 (configuration not stated) false (0)

// next entry
Called result for `CCOC(=O)[C@@H](C)C[C@H](Cc1ccccc1)NC(=O)c1csc([C@@H](C[C@H](C(C)C)N(C)C(=O)[C@@H](NC(=O)[C@H]2CCCCN2C)C(C)(C)CC)OC(C)=O)n1` true (1)

* * *

- Test system: HCT-116 colon
- Test summary: NCI tumour cell line growth inhibition, 48 h; in the data active = GI50 below about 0.43 µM; inactive = the rest
Entry note: the call must match one of T for active, F for inactive

Past entries and their recorded results:
Just curious, what result did `NS(=O)(=O)c1ccc(Nc2cc(-c3ccc(O)c(F)c3)[nH]n2)cc1` get here? F

# lookup: test call for `C#Cc1cccc(Nc2ncnc3cc(NC(=O)CCl)ccc23)c1` F

Test call, this compound: `c1ccc(-c2oc(-c3ccccc3)c(CN3CCCCC3)c2CN2CCCCC2)cc1` F

What call does the record list for `O=C1NC(=NCc2ccccc2Cl)S/C1=C\c1ccc2ncccc2c1` ? F

---
Dear all, I need the recorded test outcome for `Cn1cc(/C=C\[N+](=O)[O-])c2ccccc21` , thank you. F

Test call, this compound: COc1ccc2c(c1)OC(N)=C(C#N)C2c1cc(OC)c(OC)c(OC)c1 (stereo not drawn) T

Called result for `CO[C@H]1C[C@@H]2CC[C@@H](C)[C@@](O)(O2)C(=O)C(=O)N2CCCC[C@H]2C(=O)O[C@H]([C@H](C)C[C@@H]2CC[C@@H](OC(=O)C(C)(CO)CO)[C@H](OC)C2)CC(=O)[C@H](C)/C=C(\C)[C@@H](O)[C@@H](OC)C(=O)[C@H](C)C[C@H](C)\C=C/C=C/C=C/1C` F

Just curious, what result did COc1ccc(C(O)c2cc3c(N)c(C(=O)Nc4ccc(Cl)cc4)sc3nc2C)cc1 (stereo not drawn) get here? F

* * *

- System: NCI-H460 lung
- Test summary: NCI tumour cell line growth inhibition, 48 h
Assay endpoint: TGI (µM)
Give bare numbers, in µM.

Previously resolved entries follow.
Return value of TGI for input `CC(C)(C)c1cc(C(=O)Nc2ccccc2C(=O)NCCN)cc(C(C)(C)C)c1` , no commentary. 3.67

Identify measured TGI associated with `Nc1nc(Nc2ccc(Cl)c(Cl)c2)nc2nc[nH]c12` 34

Determine its reported TGI: O=C1Nc2ccc(Br)cc2C12CC(c1ccccc1)=NN2 (stereo not given) 19.4

Would you mind listing TGI for each of the following compounds?
1. CCCCCCCC/C=C1\CCC(CN(C)C)C1=O (stereo not given)
2. CCOC(=O)C(C)(NC(=O)c1ccc(NCc2ccc3nc(NC(=O)c4ccccc4)nc(NC(=O)c4ccccc4)c3c2)cc1)C(=O)OCC

28.4
32.5

* * *

- Tested on: UACC-62 melanoma
- Test summary: NCI tumour cell line growth inhibition, 48 h
Assay endpoint: TGI

Below: 4 molecules and their reported TGI.
State its TGI: `Cn1c(CBr)nc2c1C(=O)c1nc(CBr)[nH]c(=O)c1C2=O` > 100 µM

Look up and state reported TGI for CCOC1OC(CO)C(O)CC1n1ccc(=O)[nH]c1=O (stereo unspecified) > 100 µM

Specify measured TGI for Brc1ccc(C2C3CSc4ccccc4C3=NN2c2ccccc2)cc1 (stereo unspecified) . > 100 µM

Look up TGI of `Cc1c(O)c(=O)ccn1CCN` and report it. > 100 µM

For each of the molecules below, note its TGI.
1. COc1ccc2nc3cc(Cl)ccc3c(NCCCNCCO)c2c1
2. Cc1nc(N)nc(N)c1CCCCc1ccc(N)cc1
3. COc1ccc(C(O)/C(=N/N)c2nc3ccc(Cl)cc3[nH]c2=O)cc1 (stereo unspecified)

2.54 µM
14.1 µM
> 100 µM

Record TGI for all entries; do not skip any.
1. Cc1ccc(NC(=O)CCCC(=O)CC(=O)c2ccc(Br)cc2)cc1
2. CC(C)(C)OC(=O)NC1CCCC1C(=O)C1=CCCC1 (stereo unspecified)
3. Nc1nc2c(N)cc(C(F)(F)F)cc2nc1-c1ccccc1

1: > 100 µM; 2: > 100 µM; 3: > 100 µM

# return recorded TGI for entry `NC(=O)c1ccc2c(c1)-c1nc-2nc2[n-]c(nc3nc(nc4[n-]c(n1)c1ccc(C(N)=O)cc41)-c1ccc(C(N)=O)cc1-3)c1ccc(C(N)=O)cc21.[Co+2]` > 50 µM

* * *

- Tested on: K-562 leukemia
- Test summary: NCI tumour cell line growth inhibition, 48 h; in the data active = GI50 below about 0.43 µM; inactive = the rest
Returns: one label drawn from Yes = active, No = inactive

Would you please look over these solved cases?
How did this test come out for `COc1cc(CNCCCCCCN2C(=O)c3cccc4cccc(c34)C2=O)ccc1O` ? No

What did this assay record as the result for `NS(=O)(=O)c1ccc(Nc2cc(-c3ccc(O)c(F)c3)[nH]n2)cc1` ? No

Field: outcome | Entry: `O=C1/C(=C/c2ccc(Cl)c(Cl)c2)CN(C(=O)C(Cl)Cl)C/C1=C\c1ccc(Cl)c(Cl)c1` Yes

Answer briefly: the call reported for `O=C1[C@@H]2C(c3ccc(Br)cc3)=NO[C@@H]2C(=O)N1c1ccc(Cc2ccc(N3C(=O)[C@H]4C(c5ccc(Br)cc5)=NO[C@H]4C3=O)cc2)cc1` in this assay. No

How was `CN1CCN(CC(=O)N(C)c2ccc(N=C(c3ccccc3)c3c(O)[nH]c4ccc(C#N)cc34)cc2)CC1` classified in this test? No

Recorded test call requested for CCCCN(CCCC)C(=O)[C@H](CC)[C@@H]1CC[C@@H](C)[C@@H]([C@H](C)[C@@H](O)[C@@H](C)C(=O)[C@H](CC)C2O[C@]3(C=C[C@@H](O)[C@]4(CC[C@@](C)([C@H]5CC[C@](O)(CC)[C@H](C)O5)O4)O3)[C@H](C)C[C@@H]2C)O1 (stereo partly drawn) No

Status in this test for `COc1cccc(/C=C/C(=O)c2ccc3cc(OC)ccc3c2)c1` ? No

Outcome? O=C1Nc2ccc(Br)cc2C12CC(c1ccccc1)=NN2 (stereo not drawn) No

What classification did O=C1CC(c2c[nH]c3ccc(F)cc23)C(=O)N1 (stereo not drawn) end up with in this test? No

// outcome(item) with item = `O=C1NC(=NCc2ccccc2Cl)S/C1=C\c1ccc2ncccc2c1` No

Continuing:
Field: outcome | Entry: `CN(C)c1ccc(/C=C\c2ccnc3ccccc23)cc1` No

# outcome recorded in this test, key = `CCOC(=O)c1c(-c2ccccc2)[n+](=O)c2cc(Cl)c(Cl)cc2n1[O-]` No

Could you check what this test reported for COc1cc2c(c(OC)c1OC)-c1ccc(NN(C(=O)c3ccccc3)C(=O)c3ccccc3)c(=O)cc1[C@@H](NC(C)=O)CC2 (tested in a mixture with another compound) ? No

Per the assay record, what outcome was assigned to CC1CC2C3CCC4=CC(=O)C=CC4(C)C3(F)C(O)CC2(C)C1(O)C(=O)COP(=O)(O)O (stereo not drawn) ? No

Entry COC1(CC[C@@H](C)COC2OC(CO)C(O)C(O)C2O)O[C@H]2C[C@H]3[C@@H]4CC=C5C[C@@H](OC6OC(CO)C(OC7OC(C)C(O)C(O)C7O)C(O)C6OC6OC(C)C(O)C(O)C6O)CC[C@]5(C)[C@H]4CC[C@]3(C)[C@H]2[C@@H]1C (stereo partly drawn) : call = ? No
